assay-target: PARK7 (Homo sapiens)
Sequence (Q99497 whole entry): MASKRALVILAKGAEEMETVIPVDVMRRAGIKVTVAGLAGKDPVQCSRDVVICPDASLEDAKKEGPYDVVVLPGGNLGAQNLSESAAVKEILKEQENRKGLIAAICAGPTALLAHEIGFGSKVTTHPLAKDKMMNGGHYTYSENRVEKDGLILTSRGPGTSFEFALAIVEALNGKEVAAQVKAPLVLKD
experiment-notes: High-throughput screen of the crude compound library, PARK7 fluorescence polarization (FP) assay with FP reagent JYQ-107
Format: biochemical
study-conditions: 1.25 µM, crude compound library; read-out: HTS FP assay %Inhibition (1.25 µM)
measured-quantity: inhibition at 1.25 µM (%)
The response must be a number in % with no trailing unit.

# count of solved cases: 3
CC1(C(=O)N2CCc3nc(NC(=O)[C@@H]4CCN(C#N)C4)sc3C2)CCCCN1C(=O)OCc1ccccc1 (stereo partly shown) [compound 283] ... 65.2
N#CN1CC[C@@H](C(=O)Nc2nc3c(s2)CN(C(=O)c2ccnc(N4CCOCC4)n2)CC3)C1 [compound 180] ... 87.3
N#CN1CC[C@@H](C(=O)Nc2nc3c(s2)CN(C(=O)c2snnc2-c2ccc(Br)cc2)CC3)C1 [compound 42] ... 69.7

In: State measured inhibition at 1.25 µM of the molecule N#CN1CC[C@@H](C(=O)Nc2nc3c(s2)CN(C(=O)C2(n4cnnn4)CCOCC2)CC3)C1 [compound 36] with PARK7 (Homo sapiens).
Out: 65.2

In: Param request: inhibition at 1.25 µM | system PARK7 (Homo sapiens) | item N#CN1CC[C@@H](C(=O)Nc2nc3c(s2)CN(C(=O)c2cc(S(=O)(=O)Nc4nccs4)ccc2F)CC3)C1 [compound 321]
Out: 81.4

In: Please look at N#CN1CC[C@@H](C(=O)Nc2nc3c(s2)CN(C(=O)c2csc(-c4cnccn4)n2)CC3)C1 [compound 58] and tell me its recorded inhibition at 1.25 µM on PARK7 (Homo sapiens).
Out: 74.4

In: Name the value of inhibition at 1.25 µM reported for N#CN1CC[C@@H](C(=O)Nc2nc3c(s2)CN(C(=O)c2sccc2S(=O)(=O)NCc2ccco2)CC3)C1 [compound 236] when tested on PARK7 (Homo sapiens).
Out: 58.7
